Hi there, I'd appreciate the recorded INHIBITION for every entry that follows.
Test system: Plasmodium berghei
Experiment: Screen against P. berghei liver stage (PbLuc), transformed with Luciferase, at 2uM
Type: functional, HepG2
Conditions: tested at 2 uM
Out of some 68,000 compounds screened, about 2,700 (4%) showed an effect of 50% or more. This excerpt belongs to a sample that is enriched for strong results.
One number for each entry, in %.

CC(=O)NCCCSC1CCCN(c2ccccc2Cl)C1=O (centres undefined); -1.89
CCc1nnc(SCC(=O)N2CCc3[nH]nc(C4CCC4)c3C2)o1; 66.4
O=C(NC[C@H]1C[C@@H]2CN(C(=O)c3ccco3)C[C@@H]2O1)c1ccsc1; 34.93

Next compound, INHIBITION to be filled in.
So what's the measured INHIBITION for this one? CC(=O)N1CCC2(CC1)[C@@H]1CN(Cc3cccnc3)C[C@@H]1C(=O)N2C
35.89

Where do the numbers come from? From ChEMBL document CHEMBL4513216.
